test system: HT-29; assay: Cytotoxicity against human HT-29 cells after 3 days by sulforhodamine B assay; assay type: functional; conditions: HT-29, 72 h, read-out: ED50 (the source's name)
readout: EC50

Some solved entries appear below for comparison.
>  <structure>
COc1c(O)cc2oc3cc4c(c(O)c3c(=O)c2c1CCC(C)(C)OC=O)CCC(C)(C)O4

>  <EC50>
4.4 µM

$$$$
>  <structure>
COc1c(O)cc2oc3cc(O)c(CC=C(C)C)c(O)c3c(=O)c2c1CC=C(C)C

>  <EC50>
4.1 µM

$$$$
>  <structure>
COc1cc2oc3c(C)c(OC)c(CC=C(C)C)c(O)c3c(=O)c2c(CC=C(C)C)c1OC

>  <EC50>
> 10 µM

$$$$
>  <structure>
COc1ccc2oc3c(C/C=C(\C)CCC=C(C)C)c(OC)c(CC=C(C)C)c(O)c3c(=O)c2c1

>  <EC50>
> 10 µM

$$$$
>  <structure>
COc1c(O)cc2oc3cc(O)c4c(c3c(=O)c2c1CCC(C)(C)O)OC(C)(C)CC4

>  <EC50>
> 10 µM

$$$$

Lookup: What value of EC50 has been recorded for this entry: `CC(C)=CCC/C(C)=C/Cc1c(O)c(CC=C(C)C)c(O)c2c(=O)c3cc(O)ccc3oc12`
Found: > 10 µM
